- Protocol text: gradient 5% acetonitrile 3 min, to 50% in 2 min, to 85% in 15 min, held 3 min, 100 µL/min
- Settings: column: Zorbax Extend-C18 2.1 x 50 mm; eluents: water / acetonitrile, 0.1% formic acid
Assay readout: RP-LC retention time
Answer with the value and then the unit.

The examples below pair each entry with its known result.
Cc1ccccc1OCC(=O)N1CCN(c2cc(C)n3c(C)nnc3n2)CC1    630 s
CN(Cc1nc2cc(C(=O)N3CCCC3)ccc2n1C)C(=O)Nc1ccc2c(c1)OCCO2    688 s
Cc1ccc(-c2nnc(Cc3nc(-c4cccnc4)no3)o2)cc1C    845 s
CCOc1ccccc1NC(=O)NCc1nc(-c2ccccc2)oc1C    963 s

Switching to the query record.
Task: State its RP-LC retention time for this molecule: Cc1c(CCC(=O)N2CCC(C(N)=O)CC2)c(=O)oc2cc3oc4c(c3cc12)CCCC4
Result: 795 s
